Cited source for all entries: ChEMBL document CHEMBL1955829

Exercise: state measured GI50 for each of the compounds provided.
# System: MCF7
# Method summary: Growth inhibition of human MCF7 cells after 48 hrs by sulforhodamine B assay
# Type: functional
# Test context: MCF7, 48 h
Respond numerically; units are µM and should not be typed.

Requested read-out GI50, target or system MCF7, entry COc1cc([C@@H]2c3cc4c(cc3[C@@H](NS(=O)(=O)c3sc(NC(C)=O)nc3C)[C@H]3COC(=O)[C@H]23)OCO4)cc(OC)c1OC
0.15

Requested read-out GI50, target or system MCF7, entry COc1cc([C@@H]2c3cc4c(cc3[C@@H](NS(=O)(=O)c3cc(Cl)sc3Cl)[C@H]3COC(=O)[C@H]23)OCO4)cc(OC)c1OC
0.11

Requested read-out GI50, target or system MCF7, entry COc1cc([C@@H]2c3cc4c(cc3[C@@H](O[C@@H]3O[C@@H]5CO[C@@H](C)O[C@H]5[C@H](O)[C@H]3O)[C@H]3COC(=O)[C@H]23)OCO4)cc(OC)c1O [ETOPOSIDE]
2.11

Requested read-out GI50, target or system MCF7, entry COc1cc([C@@H]2c3cc4c(cc3[C@@H](NS(=O)(=O)c3ccc(S(=O)(=O)c5ccccc5)s3)[C@H]3COC(=O)[C@H]23)OCO4)cc(OC)c1OC
0.14

Requested read-out GI50, target or system MCF7, entry COc1cc([C@@H]2c3cc4c(cc3[C@@H](NS(=O)(=O)c3cccc5nsnc35)[C@H]3COC(=O)[C@H]23)OCO4)cc(OC)c1OC
2.21

Requested read-out GI50, target or system MCF7, entry COc1cc([C@@H]2c3cc4c(cc3[C@@H](NC(=O)c3ccc(NS(=O)(=O)c5ccc(Br)s5)cc3)[C@H]3COC(=O)[C@H]23)OCO4)cc(OC)c1OC
2.71
